test system: CRL-7250; assay: qHTS assay to identify novel small-molecules to repurpose for Merkel cell carcinoma treatment (AID 1296009); settings: MCC and control cell lines, CellTiter-Glo viability, 72 h; series mostly up to 92 µM; further: nearly all actives have a fitted effect of over 60% in size
Records with an inconclusive call do not appear. Calls of active or inactive are those of the source. The call rests on the fitted dose curve; in most records, active means well fitted inhibition curve with a large enough effect; inconclusive means small, poorly fitted or top-dose-only effect; inactive means flat fitted curve, though single readings scatter.
Observable: outcome

Compound	Observable	Obs Value
CCC(COC)n1nnc2c(Nc3ccc(OC)cc3C)nc(C)cc21 (centres undefined)	outcome	inactive
C[C@@H]1CC[C@@]23CC[C@]4(C)[C@@](C=CC5[C@@]6(C)CC[C@H](O)C(C)(C)C6CC[C@]54C)(OC2=O)C3[C@H]1C (some centres undefined)	outcome	inactive
c1nc(NC2CCCCCC2)c2cc(CNC[C@H]3CCCO3)sc2n1	outcome	inactive
